test system: SK-MEL-28 melanoma; test: NCI tumour cell line growth inhibition, 48 h
MEASUREMENT KIND: TGI (µM)

compound=CC(=O)Nc1ccc(/C=c2\sc3nnc(/C=C/c4ccccc4)n3c2=O)cc1 lt_gt_eq=> result=50
compound=COc1cc(OC)c(/C=N/N=C(\N)NO)c(OC)c1 lt_gt_eq=> result=100
compound=Cc1oc2c(c1C(=O)c1ccccc1)C(=O)c1ccccc1C2=O lt_gt_eq== result=24.3
compound="CCC12C=CCN3CC[C@]4(C(=C(C(=O)OC)[C@@H]1Nc1ccn(C5OC(COC(C)=O)C(OC(C)=O)C5OC(C)=O)c(=O)n1)Nc1ccccc14)C32 (stereo partly drawn)" lt_gt_eq== result=8.43
compound="COC(=O)C(Cc1ccccc1)NS(=O)(=O)c1ccc(-c2c3nc(c(-c4ccc(S(=O)(=O)NC(Cc5ccccc5)C(=O)OC)cc4)c4ccc([nH]4)c(-c4ccc(S(=O)(=O)NC(Cc5ccccc5)C(=O)OC)cc4)c4nc(c(-c5ccc(S(=O)(=O)NC(Cc6ccccc6)C(=O)OC)cc5)c5ccc2[nH]5)C=C4)C=C3)cc1 (stereo not drawn)" lt_gt_eq=> result=100
compound=O=[N+]([O-])c1ccc2nc(N/N=C/c3ccc(O)cc3)sc2c1 lt_gt_eq== result=57.2
compound=N#Cc1cccc(Nc2nccc(-c3cnn4ncccc34)n2)c1 lt_gt_eq== result=0.0125
compound="CC(NC1CCC[C@H]1O)c1ccccc1 (mixture of isomers)" lt_gt_eq=> result=100

====

system: HCT-116 colon; assay: NCI tumour cell line growth inhibition, 48 h; in the data active = GI50 below about 0.43 µM; inactive = the rest
Outcomes: active, inactive

molecule="Cc1cc(N2CCN(C)CC2)nc(NC2CCCC(Nc3ccnc4cc(Cl)ccc34)C2)n1 (configuration not stated)" qualitative_label=inactive
molecule=N#Cc1ccc(-n2cnc(NC(=O)[C@H]3CCN(C#N)C3)c2)cc1 qualitative_label=inactive
molecule=COC(=O)c1c2c(c(C)[n+]([O-])c1C)C(=O)C(NCc1ccc(F)c(Cl)c1)=CC2=O qualitative_label=inactive
molecule=O=C(N/N=C/c1cc2ccccc2c2ccccc12)c1cc(O)c(O)c(O)c1 qualitative_label=inactive
molecule=CS(=O)(=O)c1ccc(C(F)(F)F)cc1NC(=O)Nc1cnc(Oc2ccc(-c3cc(Cl)cnc3N)cc2)nc1 qualitative_label=inactive
molecule=O=C(Oc1ccc([N+](=O)[O-])cc1)N1CCC(C(O)(c2ccc3c(c2)OCO3)c2ccc3c(c2)OCO3)CC1 qualitative_label=inactive
molecule="N#CC1=C(N)Oc2c(sc3c(F)cccc23)C1c1ccc([N+](=O)[O-])cc1 (configuration not stated)" qualitative_label=active
molecule=C=CCSc1n[nH]c(-c2cccs2)n1 qualitative_label=inactive
molecule=C[C@]12CC[C@@H]3c4ccc(O)cc4CC[C@H]3[C@@H]1CC[C@@H]2NS(=O)(=O)c1cccc(Br)c1 qualitative_label=inactive
molecule=CCOC(=O)c1c(C)c2c(n1C)CSc1cc(S(=O)(=O)c3ccccc3)c(=O)[nH]c1-2 qualitative_label=inactive
molecule=Clc1ccc2c(NCCNc3nc(-c4ccccc4)cc(-c4ccccc4)n3)ccnc2c1 qualitative_label=inactive
molecule=Cc1ccnc2c1NC(=O)c1cccnc1N2C1CC1 qualitative_label=inactive
molecule=CCOC(=O)C(=Cc1ccc(Br)cc1)C(=O)OCC qualitative_label=inactive
molecule=Nc1ccc(-c2ccc(-c3nc4ccccc4[nH]3)cc2)cc1 qualitative_label=inactive
molecule="COCCOC(C)C(/C=N/NC(N)=S)=N/NC(N)=S (configuration not stated)" qualitative_label=active
molecule=O=C1C(Nc2ccccn2)=C(I)C(=O)c2ncccc21 qualitative_label=active
molecule=O=S(=O)(Nc1ccc(Cl)c(C(F)(F)F)c1)c1ccc(-c2cnc(C3CC3)o2)cc1 qualitative_label=active

====

tested on: BT-549 breast; assay: NCI tumour cell line growth inhibition, 48 h; in the data active = GI50 below about 0.43 µM; inactive = the rest
Possible outcomes: TRUE = active, FALSE = inactive

compound="O=C=Nc1ccc(Cc2ccc(N=C=O)cc2)cc1 (tested in a mixture with another compound)" target="BT-549 breast" qualitative_label=FALSE
compound=COc1ccc2[nH]cc(/C=C3\C(=O)Nc4ccccc43)c2c1 target="BT-549 breast" qualitative_label=FALSE
compound=Cc1ccc(NC2=C(Cl)C(=O)c3nc(C)ccc3C2=O)cc1 target="BT-549 breast" qualitative_label=FALSE
compound=CO[C@H](/C(C)=C/C=C/C(C)=C/c1coc(C)n1)[C@H](C)[C@H]1C[C@@H](O)[C@@]2(C)O[C@H]2/C=C/[C@@H](C)[C@@H]2C[C@@H](CC(=O)O2)C[C@H]2O[C@@H]2C(=O)O1 target="BT-549 breast" qualitative_label=TRUE
compound="C/C=C(/C)C(=O)OC1C=C(CO)C(=O)C(OC(=O)/C(C)=C\\C)C1C(C)C (configuration not stated)" target="BT-549 breast" qualitative_label=FALSE
compound=C[C@]12CC[C@H]3[C@@H](C[C@@H]4SC(Nc5cccc(F)c5)=N[C@@]45CC(=O)CC[C@]35C)[C@@H]1CCC2=O target="BT-549 breast" qualitative_label=FALSE
compound="N#CC1=C(N)Oc2c(sc3c(F)cccc23)C1c1ccc([N+](=O)[O-])cc1 (configuration not stated)" target="BT-549 breast" qualitative_label=TRUE

====

Entries annotated with measured TGI
system: DMS 114 small cell lung; assay: NCI tumour cell line growth inhibition, 48 h
MEASUREMENT KIND: TGI

compound="C=C(CO)CC(O)c1ccccc1 (stereo unspecified)" target="DMS 114 small cell lung" result="> 100 µM"
compound=c1ccc2cc3n[se]nc3cc2c1 target="DMS 114 small cell lung" result="> 100 µM"
compound=O=C(C#Cc1c[nH]c(=O)[nH]c1=O)c1ccccc1 target="DMS 114 small cell lung" result="35.4 µM"
compound="COC(=O)C1CCc2c(OC)ccc(OC)c2C1=O (stereo unspecified)" target="DMS 114 small cell lung" result="> 100 µM"
compound="CC(C)NC(C)Cc1ccccc1 (stereo unspecified)" target="DMS 114 small cell lung" result="> 100 µM"
compound="Cc1cccc(NC(=O)CC2C(=O)Nc3ccccc3S2(=O)=O)c1C (stereo unspecified)" target="DMS 114 small cell lung" result="51.6 µM"

====

Catalogue of TGI values
tested on: OVCAR-5 ovarian; assay: NCI tumour cell line growth inhibition, 48 h
MEASUREMENT KIND: TGI

molecule=O=C(O)/C(O)=C1/C=C(c2ccccc2)c2ccccc21 result="72.2 µM"
molecule=O=C(c1cccs1)c1c(C(F)(F)F)n([O-])c2cc(F)c(F)cc2[n+]1=O result="5.58 µM"
molecule=COc1cccc(/C=N/n2c(-c3ccccc3)n[nH]c2=O)c1 result="> 100 µM"
molecule=CC1=NN(C(=O)c2ccc(Cl)cc2)C(=O)/C1=C/c1cccc(O)c1 result="> 100 µM"
molecule="Nc1nc(=O)n(C2OC(CO)C(O)C2O)cc1F (stereo unspecified)" result="> 81.3 µM"
molecule=N#Cc1c(NC(=O)CCC(=O)O)ccc2ccccc12 result="> 100 µM"
molecule=O=[N+]([O-])c1ccc2nc(N/N=C/c3ccc(O)cc3)sc2c1 result="> 100 µM"
molecule="CCNC1CC(C(C)(C)NCC)CC=C1C (stereo unspecified)" result="> 100 µM"
molecule="C[C@H](CCc1nc(C#N)c(N)o1)[C@H]1CC[C@H]2[C@@H]3[C@@H](O)CC4C[C@@H](O)CC[C@]4(C)[C@H]3C[C@@H](O)[C@]12C (stereo partly specified)" result="58.3 µM"
molecule="CNC(Cc1ccccc1)c1cccc(OC)c1O (stereo unspecified)" result="> 100 µM"
molecule="CC(O[Si](C)(C)C(C)(C)C)[C@H](NC(=O)OCC(Cl)(Cl)Cl)C(=O)O (stereo partly specified)" result="> 100 µM"

====

system: NCI-H460 lung
Outcomes: active, inactive

molecule=O=S(=O)(Nc1ccc(Cl)c(C(F)(F)F)c1)c1ccc(-c2cnc(C3CC3)o2)cc1 qualitative_label=active
molecule=COC(=O)c1c2c(c(C)[n+]([O-])c1C)C(=O)C(NCc1ccc(F)c(Cl)c1)=CC2=O qualitative_label=inactive
molecule=CS(=O)(=O)c1ccc(C(F)(F)F)cc1NC(=O)Nc1cnc(Oc2ccc(-c3cc(Cl)cnc3N)cc2)nc1 qualitative_label=inactive
molecule=COc1ccc2[nH]cc(/C=C3\C(=O)Nc4ccccc43)c2c1 qualitative_label=inactive
molecule="O=c1cccc(C#CCCCCOC2CCCO2)o1 (stereo not given)" qualitative_label=inactive
molecule=O=C(c1cccs1)c1c(C(F)(F)F)n([O-])c2cc(F)c(F)cc2[n+]1=O qualitative_label=inactive
molecule=Nc1ccc(-c2ccc(-c3nc4ccccc4[nH]3)cc2)cc1 qualitative_label=active
molecule=N#Cc1ccc(-n2cnc(NC(=O)[C@H]3CCN(C#N)C3)c2)cc1 qualitative_label=inactive
molecule=O=[N+]([O-])c1ccc(N(CCO)CCO)c2c1no[n+]2[O-] qualitative_label=inactive
molecule=C=CC(=O)Nc1cc2c(Nc3ccc(OCc4ccccn4)c(Cl)c3)ncnc2cc1OCCN1CCOCC1 qualitative_label=inactive
